System: Primary adult CD34+ human hematopoietic stem cells (HSCs)
measurement protocol: % CD34+ assay: HSC expansion screen, dose response
Assay type: cell-based
condition: Homo sapiens, Hematopoietic stem cell; dose response 1 nM to 10 μM; total number and/or percent of CD34+ cells
Kindly state log10(EC50) for each of the entries shown.
In our notation, the value equals log10 of EC50 in nM.

Input `CC(C)n1cnc2c(NCCc3ccc(O)cc3)nc(-c3cccnc3)nc21` . Output log10(EC50): 2.28

log10(EC50) recorded for this compound, `CC(C)n1cnc2c(NCCN3CCNC3=O)nc(-c3csc4ccccc34)nc21` , is 3.43

The measured log10(EC50) associated with `CCOC(=O)c1cncc(-c2nc(NCCc3ccc(O)cc3)c3ncn(C(C)C)c3n2)c1` reads 3.75

For this compound ( `CC(C)n1cnc2c(NCCc3cccc(O)c3)nc(-c3csc4ccccc34)nc21` ), measured log10(EC50) is 3.16

Record summary for `CC(C)n1cnc2c(NCCc3ccc(O)cc3)nc(-c3cccs3)nc21` : reported log10(EC50) = 3.11

// log10(EC50) lookup, compound = `Cc1[nH]c2ccccc2c1CCNc1nc(-c2cncc(F)c2)nc2c1ncn2C(C)C` , result: 0.70

# compound `CC(C)n1cnc2c(NCCc3c[nH]c4ccc(OC(=O)CCCCCNC(=O)CCCC[C@@H]5SC[C@@H]6NC(=O)N[C@@H]65)cc34)nc(-c3csc4ccccc34)nc21` ; its log10(EC50) = 3.32

# log10(EC50) of `Cc1cncc(-c2nc(NCCc3c[nH]c4ccccc34)c3ncn(C(C)C)c3n2)c1` = 1.00

Origin of values: patent US9580426B2
